tested on: L1210 leukemia ip in BDF1 mice, survival T/C; test: NCI In Vivo Anticancer Drug Screen. Data for tumor model L1210 Leukemia (intraperitoneal) in B6D2F1 (BDF1) mice; details: endpoint: mean survival time; dose: 100.0 mg/kg/injection; schedule: Q04DX003 (ip); vehicle: saline; higher = longer survival
Inconclusive results and toxic doses are left out.
Parameter: T/C. Scope: all listed entries.

Consider the following illustrative entries.
1. O=c1ccn2ccccc2n1	103 % of control
2. C#CCN(C)Cc1ccccc1	103 % of control
3. CCOC(=N)N1C(N)=NC(=O)C1c1ccccc1 (centres undefined)	110 % of control

Requested field: T/C. Item: Cc1cccc(C)c1NC(=O)NCCCl
105 % of control

For the compound shown here, C1=C(c2ccccc2)S/C(=C/c2ccccc2)S1 , give the reported T/C.
87 % of control

What does the record list as T/C for CNC1CC2CCC(C2)C1(O)c1ccccc1 (centres undefined) ?
102 % of control

Field request: T/C | item: NCC(=O)c1ccc(O)c(O)c1
97 % of control

Which measured T/C value corresponds to CC1(C)CC(=NNC2=NC=NC3=NC=NC32)CC(C)(C)N1O (centres undefined) ?
102 % of control

Query: T/C; subject: O=S(O)OS(=O)O
100 % of control

// T/C lookup, key: S=P(Oc1ccccc1)(N1CC1)N1CC1
92 % of control

Endpoint output: T/C of CCOCC[n+]1ccc(C)cc1 . Value?
107 % of control

Which T/C value is on record for C#CCOCC1CN(C)C(=O)O1 (centres undefined) ?
106 % of control

// lookup T/C for CCN(CC)C(=O)N(CC)C(=O)CN(C)C
102 % of control

Find the recorded T/C belonging to Cc1ccc(-c2ccc(C)s2)s1 and report it.
96 % of control

---

system: L1210 leukemia ip in BDF1 mice, survival T/C; assay: NCI In Vivo Anticancer Drug Screen. Data for tumor model L1210 Leukemia (intraperitoneal) in B6D2F1 (BDF1) mice; conditions: endpoint: mean survival time; dose: 400.0 mg/kg/injection; schedule: Q01DX009 (ip); vehicle: saline with Tween-80; higher = longer survival
Toxic doses and inconclusive results are not listed.
ENDPOINT LABEL: T/C

Consider the worked cases shown below.
1) CCOC(=O)c1ccc(NC(=O)Nc2ccc(OC)cc2Cl)cc1	92 % of control
2) Cc1cc(C)c(CCc2cc(C)c(C)cc2C)cc1C	87 % of control
3) CCOC(CCc1c(-c2ccc([N+](=O)[O-])cc2)nc(N)[nH]c1=O)OCC	95 % of control
4) Cc1cc(N(CCCOS(C)(=O)=O)CCCOS(C)(=O)=O)ccc1C=Nc1ccc(-c2csc(COc3ccc(Cl)cc3Cl)n2)cc1	94 % of control
5) CC(=O)Oc1cc2ccccc2cc1C(C)C	88 % of control
6) O=[N+]([O-])c1ccc(N/N=C/c2cccc(CO)c2)c([N+](=O)[O-])c1	100 % of control
7) COc1ccc([N+](=O)[O-])cc1NS(=O)(=O)c1cccc([N+](=O)[O-])c1	106 % of control
8) Cc1cccc(NC(=O)c2ccccc2Cl)c1C	104 % of control
9) CCOC(=O)C(Br)(C(=O)OCC)C(c1ccccc1)c1ccccc1	93 % of control
10) Cc1ccc(S(=O)(=O)N2CCC(C(=O)O)(c3ccccc3)CC2)cc1	95 % of control

With those in mind, consider the next molecule.
Please report the recorded T/C for CN(C)c1ccc(N=Nc2ccc(C(C)(C)C)cc2)cc1 .
89 % of control
